Hello, the source for this data is patent CN112538116A, in case you need it.

biological target: T1, 4-1BB-ECD-hFc (human, UniProt Q07011 24-186); assay: ELISA, 4-1BB-ECD-hFc coated
T1 construct: extracellular domain; Coated on the ELISA plate; also called 4-1BB-hFc; 4-1BB-hFc蛋白; not shown: human Fc (hFc)

>  <BINDER>
抗人4-1BB杂交瘤抗体8H8 (antibody, V domains shown, Mouse hybridoma antibody purified on Protein A) VH: QIQLVQSGPELKKPGETVKISCKASGYTFSNYGMNWVKQAPGKGLKWMGWINTHTGEPTYADEFKGRFAFSLETSVSTAYLQINNLKNEDTATYFCARVLTMVMDYWGQGTSVTVSS VL: DIVLTQSPASLAVSLGQRATISCRASEIIDGSGNSFVHWYQQKPGQPPKLLIYRTSTLESGIPARFSGSGSRTDFTLTINPVEADDVATYSCLQTVEDPWTFGGGTKLEIK

>  <binding result>
binds

$$$$
>  <BINDER>
抗人4-1BB杂交瘤抗体3F10 (antibody, V domains shown, Mouse hybridoma antibody purified on Protein A) VH: QVQLQQSGAELVRPGASVKISCKAFGFTFTHHHINWVKQRPGQGLDWIGYINPYNDYSIYNQKFEGKATLTVDKSSSTAYMELSRLTSDDSAVYFCARGGLGRGYFDYWGQGTTLTVSS VL: DIVMTQSTAIMSASLGEKVTMTCRASSSVTSSYLHWYQQKSGASPKIWISSTSNLASGVPVRFSGSGSGTSYSLTISSVEAEDAATYYCQQYSGNPYTFGGGTKLEIK

>  <binding result>
binds

$$$$
